I'd appreciate it if you could supply pIC50 values for the items below.
- System: Human breast adenocarcinoma cell line (MDA-MB-231)
- measurement.protocol: Cytotoxicity test / growth inhibition, MDA-MB-231
- Type: cell-based
- condition.context: MDA-MB-231, 48 hours, cell counting
One number for each entry, as −log10 of the molar value.

For orientation, consider the following solved cases.
[[record]]
molecule = "CCCC(C)C(F)c1cn(-c2ccc(NC(=O)Nc3ccccc3C(F)(F)F)cc2)nn1 (centres unmarked) [Compound 42c]"
reported = 4.47

[[record]]
molecule = "CCCCc1cn(-c2ccc(NC(=O)Nc3ccccc3C)cc2)nn1 [Compound 20a]"
reported = 4.73

[[record]]
molecule = "CCOCn1nnc(-c2ccc(NC(=O)Nc3ccccc3C)cc2)n1"
reported = 4.63


State the recorded pIC50 for every item in the following list.
1. CCCCc1cn(-c2ccc(NC(=O)Nc3ccccc3C(F)(F)F)cc2)nn1 [Compound 22a]
2. CC(C)CCc1cn(-c2ccc(NC(=O)Nc3ccccc3C(F)(F)F)cc2)nn1 [Compound 22b]

1. 5.85
2. 4.88

---

- Test system: Human breast adenocarcinoma cell line (MDA-MB-231)
- measurement.protocol: Cytotoxicity test / growth inhibition, MDA-MB-231
- Assay type: cell-based
- condition.context: MDA-MB-231, 48 hours, cell counting
I'd appreciate it if you could supply IC50 values for the items below.
Give bare numbers, in µM.

[[record]]
molecule = "CCCCc1cn(-c2cccc(S(=O)(=O)Nc3ccccc3C(F)(F)F)c2)nn1 [Compound 64d]"
quantity_name = "IC50"
reported = 15.7


State the recorded IC50 for every item in the following list.
1. CCCCc1cn(-c2ccc(NC(=O)Nc3ccccc3C(F)(F)F)cc2F)nn1
2. CCCCc1nnc(-c2ccc(NC(=O)Nc3ccccc3C(F)(F)F)cc2)o1

[25.1, 33.6]

---

- System: Human brain glioblastoma cell line (DBTRG)
- measurement.protocol: Cytotoxicity test / growth inhibition, DBTRG
- Type: cell-based
- condition.context: 48 hours, cell counting
quantity.name: pIC50
Numbers only, as −log10 of the molar value.

Please fill in: pIC50 reported for CCCCc1cn(-c2ccc(NC(=O)Nc3ccccc3C(F)(F)F)cc2)nn1 [Compound 22a] = 5.24

---

- target.system: Human recombinant DDX3 (DDX3 wt helicase) (Homo sapiens, UniProt O00571)
- Sequence (O00571 whole entry): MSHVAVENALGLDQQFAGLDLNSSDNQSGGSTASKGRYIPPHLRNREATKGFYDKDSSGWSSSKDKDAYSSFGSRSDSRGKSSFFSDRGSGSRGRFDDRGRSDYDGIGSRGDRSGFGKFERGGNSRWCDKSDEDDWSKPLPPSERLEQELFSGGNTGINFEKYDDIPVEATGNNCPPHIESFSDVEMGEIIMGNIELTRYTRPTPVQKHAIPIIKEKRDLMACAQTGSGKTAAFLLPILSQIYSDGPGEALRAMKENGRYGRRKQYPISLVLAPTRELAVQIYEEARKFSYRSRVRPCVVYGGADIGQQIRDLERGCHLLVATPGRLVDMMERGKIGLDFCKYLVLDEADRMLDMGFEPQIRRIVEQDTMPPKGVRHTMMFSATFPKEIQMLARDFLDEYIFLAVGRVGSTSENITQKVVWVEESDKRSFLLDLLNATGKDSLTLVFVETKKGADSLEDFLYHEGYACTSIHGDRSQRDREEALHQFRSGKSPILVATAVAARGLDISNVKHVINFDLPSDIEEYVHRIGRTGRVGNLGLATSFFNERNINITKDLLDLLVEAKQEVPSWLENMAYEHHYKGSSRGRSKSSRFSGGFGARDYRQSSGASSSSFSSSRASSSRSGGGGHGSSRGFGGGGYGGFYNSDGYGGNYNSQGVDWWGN
- measurement.protocol: Helicase assay (anti-enzymatic activity against the DDX3 helicase)
- condition.context: DDX3 helicase activity, dsRNA unwinding; n.a = Compound not active; read-out: ID50 (the source's name)
quantity.name: IC50

[[record]]
record_smiles = "CCCCc1nnc(-c2ccc(NC(=O)Nc3ccccc3C(F)(F)F)cc2)[nH]1"
quantity_name = "IC50"
reported = "1 µM"


Entry CC(C)CCc1cn(-c2ccc(NC(=O)Nc3ccccc3C(F)(F)F)cn2)nn1 , Human recombinant DDX3 (DDX3 wt helicase) (Homo sapiens, UniProt O00571) data, IC50 value: 51 µM

---

- measurement.protocol: Microsomal Stability Assay (HLM)
- Format: in vitro ADME
- condition.context: human liver microsomes, 37° C., 60 min, NADPH-generating system; percentage of not metabolized compound
I'd appreciate it if you could supply Sability % values for the items below.

State the recorded Sability % for every item in the following list.
1. CCCCn1nnc(-c2ccc(NC(=O)Nc3ccccc3C)cc2)n1
2. CCCCc1cn(-c2ccc(NC(=O)Nc3ccccc3C(F)(F)F)cc2F)nn1
3. CCCCc1cn(-c2ccc(NC(=O)Nc3ccccc3C)cc2)nn1 [Compound 20a]

1. 95.6%
2. 94%
3. 99%

Please fill in: Sability % reported for CCCCc1cn(-c2cccc(S(=O)(=O)Nc3ccccc3C(F)(F)F)c2)nn1 [Compound 64d] = 99%

---

I'd appreciate it if you could supply pIC50 values for the items below.
- System: Human head and neck squamous carcinoma cell line (HN6)
- measurement.protocol: Cytotoxicity test / growth inhibition, HN6
- Format: cell-based
- condition.context: HN6, 48 hours, cell counting
- Method: Cells were purchased from American Type Culture Collection (ATCC, Manassas, Va., USA). […] Cell lines were seeded at appropriate densities in 2 mL growth medium in 6-wells culture plates 24 hours before the treatment with the inhibitor compounds. […] Cells were incubated 48 hours with drugs and, then, cell viability was evaluated. […]
Answers are plain numbers, as −log10 of the molar value.

For orientation, consider the following solved cases.
[[record]]
compound = "CCCCc1cn(-c2ccc(NC(=O)Nc3ccccc3C(F)(F)F)cc2)nn1 [Compound 22a]"
quantity_name = "pIC50"
reported = 6.10

[[record]]
compound = "CCCCc1nc(-c2ccc(NC(=O)Nc3ccccc3C(F)(F)F)cc2)no1"
quantity_name = "pIC50"
reported = 4.74

[[record]]
compound = "CCCC(C)C(F)c1cn(-c2ccc(NC(=O)Nc3ccccc3C(F)(F)F)cc2)nn1 (stereo not drawn) [Compound 42c]"
quantity_name = "pIC50"
reported = 5.20

[[record]]
compound = "CC(C)CCc1cn(-c2ccc(NC(=O)Nc3cccc4cnccc34)cc2)nn1 [Compound 55f]"
quantity_name = "pIC50"
reported = 5.21

[[record]]
compound = "CCCCn1nnc(-c2ccc(NC(=O)Nc3ccccc3C(F)(F)F)cc2)n1"
quantity_name = "pIC50"
reported = 4.79


Turning now to a further compound:
Please fill in: pIC50 reported for CCCCc1nnc(-c2ccc(NC(=O)Nc3ccccc3C(F)(F)F)cc2)o1 = 4.12

---

I'd appreciate it if you could supply PAMPA GI (RM %) membrane retention values for the items below.
- measurement.protocol: Parallel Artificial Membrane Permeability Assay (PAMPA), GI
- Format: in vitro ADME
- condition.context: GI (intestinal) PAMPA, value in brackets

[[record]]
compound = "CCCCn1nnc(-c2ccc(NC(=O)Nc3ccccc3C)cc2)n1"
reported = "24.8%"

[[record]]
compound = "CC(C)CCc1cn(-c2ccc(NC(=O)Nc3ccccc3C(F)(F)F)cc2)nn1 [Compound 22b]"
reported = "24.8%"

[[record]]
compound = "Cc1ccccc1NC(=O)Nc1ccc(-n2cc(CCC(C)C)nn2)cc1 [Compound 20b]"
reported = "26.7%"

[[record]]
compound = "COCCc1cn(-c2ccc(NC(=O)Nc3ccccc3C)cc2)nn1 [Compound 20f]"
reported = "7.4%"

[[record]]
compound = "CCCCc1cn(-c2ccc(NC(=O)Nc3ccccc3C(F)(F)F)cc2)nn1 [Compound 22a]"
reported = "23.9%"

[[record]]
compound = "Cc1c(Cl)cccc1NC(=O)Nc1ccc(-n2cc(CCC(C)C)nn2)cc1 [Compound 21b]"
reported = "59.1%"


State the recorded PAMPA GI (RM %) membrane retention for every item in the following list.
1. CCCCc1cn(-c2ccc(NC(=O)Nc3ccccc3C(F)(F)F)cc2F)nn1
2. CCCCc1cn(-c2ccc(NC(=O)Nc3ccccc3C)cc2)nn1 [Compound 20a]

30.4%
19.1%
